Tested on: SK-MEL-5 melanoma
Assay: NCI-60 one-dose screen, 48 h (100 = growth as untreated, 0 = no growth, -100 = all killed)
Details: 10 µM unless noted
Experimental: Growth inhibition of the SK-MEL-5 human tumor cell line is measured as a screen for anti-cancer activity. Cells are grown in 96 well plates and exposed to the test compound for 48 hours. Compounds are tested at a single concentration, which is 10^-5 M for most compounds. The reported endpoint is percent growth (GI% or GIPRCNT), where numbers from 0 - 100% represent growth inhibition, and numbers from -100% - 0 represent cell death. For example, a value of 40 represents 60% growth inhibition. […]
The panel holds about 83,000 compounds, 20% with a hit somewhere; the sample as a whole holds those more often.
Measured growth, listed per entry for reference.
The response must be a number in % with no trailing unit.

* CC(C)CCC[C@@H](C)[C@H]1CC[C@H]2[C@@H]3CC=C4C[C@@H](OC(=O)Cc5ccc(N(CCCl)CCCl)cc5)CC[C@]4(C)[C@H]3CC[C@]12C | 95.8

Task: // growth lookup, key: COC(=O)C[Se]C(=O)c1ccccc1OC(C)=O
Result: 90.6

Task: Quick one: O=C(O)CC(Br)C(=O)CBr (stereo not given)
Result: 106

Task: Quick one: Fc1ccc(C2=NN(c3ccccc3)C(c3sc(N(CCCl)CCCl)nc3Cl)C2)cc1 (stereo not given)
Result: 83.2

Task: Quick one: CC(C)(NC(=O)c1nn(CCCCCF)c2ccccc12)c1ccccc1
Result: 90.3

----------
System: HL-60(TB) leukemia
Test: NCI-60 one-dose screen, 48 h
Conditions: 10 µM unless noted
The panel holds about 83,000 compounds, 20% with a hit somewhere; the sample as a whole holds those more often. Calls of active or inactive are those of the source. Rule for the calls: active = growth percent below 10; inactive = the rest.
In this exercise, the only acceptable responses are true (active), false (inactive)

Look over these answered cases.
* COc1ccc(C(=O)C/C(=C\c2ccc(Cl)cc2)C(=O)NCc2ccccc2)cc1 | false
* Cc1cc(Cl)nc(N(CCCNc2ccnc3cc(Cl)ccc23)Cc2ccccn2)n1 | false
* O=C(Nc1ccc(-c2ccc3c(c2)NC(=O)/C3=C\c2ccc[nH]2)cc1)NC1CC1 | false
* OC(c1ccc(F)c(C(F)(F)F)c1)c1cnccc1NC1CCCCC1 (centres undefined) | false
* Cc1cc(NCCN(C(C)C)C(C)C)nc(/N=C(\N)Nc2ccc(Cl)c(C(F)(F)F)c2)n1 | true

Task: State the result this test recorded for C=C(C)[C@@H]1CC[C@]2(c3ncc(C)o3)CC[C@]3(C)[C@H](CC[C@@H]4[C@@](C)(CCC#N)[C@H](C(=C)C)CC[C@]43C)[C@@H]12 .
Result: true

----------
Test system: MCF7 breast
Test: NCI-60 one-dose screen, 48 h
Conditions: 10 µM unless noted
Protocol: Growth inhibition of the MCF7 human tumor cell line is measured as a screen for anti-cancer activity. Cells are grown in 96 well plates and exposed to the test compound for 48 hours. Compounds are tested at a single concentration, which is 10^-5 M for most compounds. The reported endpoint is percent growth (GI% or GIPRCNT), where numbers from 0 - 100% represent growth inhibition, and numbers from -100% - 0 represent cell death. For example, a value of 40 represents 60% growth inhibition. […]
This is part of a sample that, as a whole, favours compounds with a hit. Of some 83,000 tested, about 20% had one in any assay. Calls of active or inactive are those of the source. Rule for the calls: active = growth percent below 10; inactive = the rest.
In this exercise, the only acceptable responses are 1.0 (active), 0.0 (inactive)

Look over these answered cases.
* COc1ccc(NP2(=O)OCC(C)(N)CO2)cc1 (stereo not given) | 0.0
* CCCCCCCC(=O)OCC/C=C/C1OC1C1OC(=O)/C=C\C=C\c2nc(oc2C)/C=C(/C)CCC2OC2C1OC(=O)NC(C)=O (stereo not given) | 1.0

Task: State the result this test recorded for Oc1c(Br)cc(Br)cc1Br.[Cu+2] .
Result: 0.0

Task: Quick one: Cc1ccc2oc(=O)c3c(c2c1)OC(N)=C(C#N)C3c1ccco1 (stereo not given)
Result: 0.0

Task: Quick one: O=S(=O)(F)c1ncnc2nc[nH]c12
Result: 0.0

Task: Quick one: O=[N+]([O-])c1cc([N+](=O)[O-])c(Cl)c(Cl)c1Cl
Result: 1.0

Task: Quick one: CCCCCCCCCCOc1ccc(C(=O)Oc2ccc(CSP3(=O)OCC4OC(n5ccc(=O)[nH]c5=O)C(F)C4OP(=O)(O)OCC4OC(n5cnc6c(N)ncnc65)C(F)C4O3)cc2)cc1 (stereo not given)
Result: 0.0

Task: Quick one: CC(=O)[O][Hg][c]1ccccc1
Result: 1.0

Task: Quick one: O=c1[nH]c2cc(Cl)ccc2n1C1CCN(CCCC(c2ccc(F)cc2)c2ccc(F)cc2)CC1
Result: 1.0

Task: Quick one: CCOC(=O)Nc1cc(Cl)c([N+](=O)[O-])c(NC(=O)OCC)n1
Result: 0.0

----------
System: HT29 colon
Test: NCI-60 one-dose screen, 48 h (100 = growth as untreated, 0 = no growth, -100 = all killed)
Settings: 10 µM unless noted
This is part of a sample that, as a whole, favours compounds with a hit. Of some 83,000 tested, about 20% had one in any assay.
OBSERVATION TYPE: growth (%)
The response must be a number in % with no trailing unit.

* CC(=O)C1C(=O)N(C)C(=O)N(C)C1=O | 102
* CSc1ccccc1NP1(=O)OCC(C)([N+](=O)[O-])CO1 (stereo not given) | 105
* FC(F)=C(F)c1ccccc1 | 104
* CCOc1cc(C=C(C#N)C#N)cc(Br)c1O | 92.5

Now, please, on to the next molecule.
Task: Record NC(=O)NC(=O)CI : what is its growth with HT29 colon?
Result: 99.1

----------
Tested on: UACC-257 melanoma
Experiment: NCI-60 one-dose screen, 48 h (100 = growth as untreated, 0 = no growth, -100 = all killed)
Conditions: 10 µM unless noted
This is part of a sample that, as a whole, favours compounds with a hit. Of some 83,000 tested, about 20% had one in any assay.
Measured growth, listed per entry for reference.
The response must be a number in % with no trailing unit.

Recorded growth, per entry:
- CCOC(=O)c1cnc(SCc2ccc(Cl)c(Cl)c2)nc1N1CC1: 79
- CC12CCC3C(CC=C4CC(O)CCC43C)C1C/C(=C\N1CCOCC1)C2=O (centres undefined): 101
- CCC(CC)(c1ccccc1)C(OC(N)=O)c1ccccc1 (centres undefined): 85.8
- CO[C@@H](c1ccccc1Cl)[C@H](C)OC(N)=O: 91.7
- CNC(=O)Oc1cc(C(C)C)ccc1Sc1ccc(C(C)C)cc1OC(=O)NC: 65.5
- COC1=CC(=O)OC(CCc2ccc3c(c2)OCO3)C1 (centres undefined): 97.8
- CC[C@@]1(C2O[C@@H](C3O[C@@](O)(CC)[C@H](C)C[C@@H]3C)C[C@@H]2C)CC[C@H]([C@]2(C)CCC3(C[C@H](O)[C@@H](C)[C@@H]([C@H](C)[C@@H](OC)[C@H](C)C(=O)O)O3)O2)O1 (some centres undefined): 20.7
- NC(Cc1ccc2c(c1)OCO2)c1ccc2c(c1)OCO2 (centres undefined): 103
- CC(C)CCC[C@@H](C)[C@H]1CC[C@H]2[C@@H]3CC=C4C[C@@H](OC(=O)Cc5ccc(N(CCCl)CCCl)cc5)CC[C@]4(C)[C@H]3CC[C@]12C: 103
- C/C(=C\C(=O)O[C@H]1[C@@H]2[C@H](C)CC[C@H]2[C@]2(C)O[C@@]1(C1CCCCC1)C[C@H]2OC(=O)CO)c1ccccc1: 44.2

Task: // growth lookup, key: COc1ccc(CN2CCN(Cc3ccccc3)CC2)c(O)c1
Result: 105

Task: Quick one: c1ccc2nc(OCCN3CC3)ccc2c1
Result: 59

Task: Quick one: Nc1nc(N)c(-c2ccc(Cl)c(Cl)c2)c(/C=C/c2ccc(S(=O)(=O)F)cc2)n1
Result: 76.3

Task: Quick one: CC(=O)N(C)C1=Nc2ccc(Cl)cc2C(c2ccccc2)=[N+]([O-])C1
Result: 95.7

----------
Test system: SK-MEL-2 melanoma
Assay: NCI-60 one-dose screen, 48 h (100 = growth as untreated, 0 = no growth, -100 = all killed)
Conditions: 10 µM unless noted
The panel holds about 83,000 compounds, 20% with a hit somewhere; the sample as a whole holds those more often.
Threshold rule: growth greater than or equal to 90% is fulfilled; below that, not fulfilled.

• CSc1ccccc1NP1(=O)OCC(C)([N+](=O)[O-])CO1 (stereo unspecified) = fulfilled
• O=[N+]([O-])c1ccc2cnn(CSP(=S)(c3ccccc3)c3ccccc3)c2c1 = fulfilled

Task: Determine whether measured growth meets or exceeds 90% for NS(=O)(=O)c1nc[nH]c1[N+](=O)[O-]
Result: fulfilled

Task: Quick one: N#C[Se]CCN1C(=O)C2C(C1=O)[C@H]1C=C[C@@H]2S1 (stereo partly specified)
Result: not fulfilled

Task: Quick one: Cc1cc(CCl)c(C)cc1CCl
Result: not fulfilled
